OUTCOME_MEASURE: melting point

>>> reported("COc1cc(C(=O)Nc2c(C#N)c3n(c2C(=O)Nc2ccccc2)CCC3)cc(OC)c1OC [16a]")
"253 to 255 °C"
>>> reported("COc1cc(C(=O)Nc2c(C#N)c3n(c2C(=O)Nc2ccc(Br)cc2)CCC3)cc(OC)c1OC [16e]")
"286 to 288 °C"
>>> reported("COc1cc(C=Nc2c(C#N)c3n(c2C(=O)Nc2ccc(Cl)cc2)CCC3)cc(OC)c1OC [15d]")
"271 to 273 °C"
>>> reported("COc1cc(C(=O)Nc2c(C#N)c3n(c2C(=O)Nc2ccc(C)cc2)CCC3)cc(OC)c1OC [16b]")
"265 to 267 °C"
>>> reported("COc1cc(C=Nc2c(C#N)c3n(c2C(=O)Nc2ccc(Br)cc2)CCC3)cc(OC)c1OC [15e]")
"277 to 280 °C"
>>> reported("COc1cc(C=Nc2c(C#N)c3n(c2C(=O)Nc2ccccc2)CCC3)cc(OC)c1OC [15a]")
"242 to 244 °C"
>>> reported("COc1cc(C(=O)Nc2c(C#N)c3n(c2C(=O)Nc2ccc(Cl)cc2)CCC3)cc(OC)c1OC [16d]")
"281 to 283 °C"
>>> reported("COc1ccc(NC(=O)c2c(NC(=O)c3cc(OC)c(OC)c(OC)c3)c(C#N)c3n2CCC3)cc1 [16c]")
"259 to 261 °C"
>>> reported("COc1ccc(NC(=O)c2c(N=Cc3cc(OC)c(OC)c(OC)c3)c(C#N)c3n2CCC3)cc1 [15c]")
"263 to 265 °C"
>>> reported("COc1cc(C=Nc2c(C#N)c3n(c2C(=O)Nc2ccc(C)cc2)CCC3)cc(OC)c1OC [15b]")
"251 to 253 °C"
>>> reported("COc1cc(C=Nc2c(C#N)c3n(c2C(=O)Nc2ccccc2)CCCC3)cc(OC)c1OC [compound 20]")
"247 to 249 °C"

* * *

Known IC50 of a selection of molecules
# Test system: normal MRC-5 cells
# MEASUREMENT_DESCRIPTION: MTT assay, normal cells (cytotoxic selectivity)
# Assay type: cell-based
# CONDITION_CONTEXT: Homo sapiens, MRC5, 72 h treatment, n = 3, read-out: IC50 (µM ± SD) MRC-5
OUTCOME_MEASURE: IC50 (µM)

>>> reported("COc1cc(C(=O)Nc2c(C#N)c3n(c2C(=O)Nc2ccccc2)CCCC3)cc(OC)c1OC [compound 21]")
0.584
>>> reported("COc1ccc(NC(=O)c2c(NC(=O)c3cc(OC)c(OC)c(OC)c3)c(C#N)c3n2CCC3)cc1 [16c]")
0.665
>>> reported("COc1cc(C=Nc2c(C#N)c3n(c2C(=O)Nc2ccccc2)CCC3)cc(OC)c1OC [15a]")
1.74
>>> reported("COc1cc(C(=O)Nc2c(C#N)c3n(c2C(=O)Nc2ccccc2)CCC3)cc(OC)c1OC [16a]")
0.155
>>> reported("COc1cc(C=Nc2c(C#N)c3n(c2C(=O)Nc2ccc(Cl)cc2)CCC3)cc(OC)c1OC [15d]")
2.07

* * *

# System: A2780
# MEASUREMENT_DESCRIPTION: MTT cell proliferation assay
# Type: cell-based, human
# CONDITION_CONTEXT: IC50 MRC-5 / IC50 A2780
Known Selectivity index A2780 of a selection of compounds
OUTCOME_MEASURE: Selectivity index A2780

>>> reported("COc1cc(C=Nc2c(C#N)c3n(c2C(=O)Nc2ccc(C)cc2)CCC3)cc(OC)c1OC [15b]")
0.10
>>> reported("COc1cc(C=Nc2c(C#N)c3n(c2C(=O)Nc2ccc(Br)cc2)CCC3)cc(OC)c1OC [15e]")
54.92
>>> reported("COc1cc(C(=O)Nc2c(C#N)c3n(c2C(=O)Nc2ccc(C)cc2)CCC3)cc(OC)c1OC [16b]")
32.51
>>> reported("COc1cc(C(=O)Nc2c(C#N)c3n(c2C(=O)Nc2ccccc2)CCC3)cc(OC)c1OC [16a]")
3.52

Data provenance: paper PMC8221158
